Entry source: the Kinase Knowledgebase extract (Sharma et al. 2016)

The following molecules each carry a recorded IC50 for EGFR (UniProt P00533).

{"columns": ["chem.smiles", "IC50"],
 "data": [
  ["COc1cc(Nc2nccc(-n3c(=O)oc4ccccc43)n2)cc(OC)c1OC", "≥ 10 µM"],
  ["COc1cc(Nc2ccnc(Nc3ccc(OCc4ccccc4)cc3)n2)cc(OC)c1OC", "≥ 10 µM"],
  ["COc1cc(Nc2nccc(-n3c(N)nc4ccccc43)n2)cc(OC)c1OC", "≥ 10 µM"],
  ["COc1cc(Nc2ccnc(Nc3ccc4c(cnn4Cc4ccccc4)c3)n2)cc(OC)c1OC", "1.5 to 5 µM"],
  ["COc1cc(Nc2nccc(Nc3ccc4c(cnn4Cc4ccccc4)c3)n2)cc(OC)c1OC", "< 1.5 µM"],
  ["COc1cc(Nc2nccc(Nc3cc(C(C)(C)C)n[nH]3)n2)cc(OC)c1OC", "5 to 10 µM"],
  ["COc1cc(Nc2nccc(-n3c(=O)[nH]c4ccccc43)n2)cc(OC)c1OC", "≥ 10 µM"]
]}
